Tested on: Pseudomonas aeruginosa PA-RR-(980151052)
Assay: MIC determination
Assay type: cell-based
Conditions: Pseudomonas aeruginosa; PA-RR-(980151052); CAMH broth, 20 μM Apo-Transferrin, 37° C., 18 hours; read-out: Minimum Inhibitory Concentrations, PA-RR-(980151052)
ENDPOINT LABEL: MIC (µg/mL)
A number alone suffices; assume µg/mL.

Below: 3 molecules and their reported MIC.
MOLECULE | SYSTEM NAME | ENDPOINT LABEL | VALUE OBSERVED
CC(C)(O/N=C(\C(=O)N[C@@H]1C(=O)N2C(C(=O)O)=C(C=Cc3ccc(C[N+]4(C)CCc5c(Cl)c(O)c(O)c(Cl)c5C4)cc3)CS[C@H]12)c1csc(N)n1)C(=O)O (mixture of isomers) | Pseudomonas aeruginosa PA-RR-(980151052) | MIC | 0.5
Cn1c[n+](Cc2ccc(C=CC3=C(C(=O)O)N4C(=O)[C@@H](NC(=O)/C(=N\OC(C)(C)C(=O)O)c5csc(N)n5)[C@H]4SC3)cc2)cc1C(=O)Nc1ccc(O)c(O)c1 (mixture of isomers) | Pseudomonas aeruginosa PA-RR-(980151052) | MIC | 8
CC(C)(O/N=C(\C(=O)N[C@@H]1C(=O)N2C(C(=O)O)=C(C=Cc3ccc(C[N+](C)(C)Cc4ccc(O)c(O)c4)cc3)CS[C@H]12)c1csc(N)n1)C(=O)O (mixture of isomers) | Pseudomonas aeruginosa PA-RR-(980151052) | MIC | 4

// next item, MIC requested
Ask: I'd like to know its MIC. The molecule in question is CC(C)(O/N=C(\C(=O)N[C@@H]1C(=O)N2C(C(=O)O)=C(C=Cc3ccc(C[n+]4ccc(NC(=O)c5ccc(O)c(O)c5)cc4)cc3)CS[C@H]12)c1csc(N)n1)C(=O)O (mixture of isomers)
Reply: 0.5

###

Reported MIC by item:
Test system: Pseudomonas aeruginosa PA-RR-(980151052)
Assay: MIC determination
Type: cell-based
Conditions: Pseudomonas aeruginosa; PA-RR-(980151052); CAMH broth, 20 μM Apo-Transferrin, 37° C., 18 hours; read-out: Minimum Inhibitory Concentrations, PA-RR-(980151052)
A number alone suffices; assume mg/L.

Below: 3 molecules and their reported MIC.
MOLECULE | RESULT UNIT | MIC
CC(C)(O/N=C(\C(=O)N[C@@H]1C(=O)N2C(C(=O)O)=C(C=Cc3ccc(C[N+]4(C)CCc5ccc(O)c(O)c5C4)cc3)CS[C@H]12)c1csc(N)n1)C(=O)O (mixture of isomers) | mg/L | 2
Cc1c[n+](Cc2ccc(C=CC3=C(C(=O)O)N4C(=O)[C@@H](NC(=O)/C(=N\OC(C)(C)C(=O)O)c5csc(N)n5)[C@H]4SC3)cc2)ccc1-c1ccc(O)c(O)c1 (mixture of isomers) | mg/L | 8
CC(C)(O/N=C(\C(=O)N[C@@H]1C(=O)N2C(C(=O)O)=C(C=Cc3ccc(C[N+]4(C)Cc5cc(O)c(O)cc5C4)cc3)CS[C@H]12)c1csc(N)n1)C(=O)O (mixture of isomers) | mg/L | 4

// next item, MIC requested
Ask: I'd like to know its MIC. The molecule in question is CC(C)(O/N=C(\C(=O)N[C@@H]1C(=O)N2C(C(=O)O)=C(C=Cc3ccc(C[N+]4(C)Cc5cc(O)c(O)c(Cl)c5C4)cc3)CS[C@H]12)c1csc(N)n1)C(=O)O (mixture of isomers)
Reply: 0.25

Every entry's value here was drawn from patent US20190100534A1.
